test: sensitizers of A549 cells to miR-34 induction, primary screen, imaging, A549 dox-inducible miR-34, nuclei and caspase counts (AID 1347080); conditions: A549 miR-34 inducible, Hoechst nuclei count, 48 h; measured here: total cells without miR-34 induction; note: test concentration not given here

>  <compound>
CN=C(NS(=O)(=O)c1ccc(Cl)cc1)N1C[C@H](c2ccccc2)C(c2ccc(Cl)cc2)=N1

>  <cell count>
5610

$$$$
>  <compound>
CN1CCc2cc3c(cc2C1O)OCO3 (centres undefined)

>  <cell count>
12700

$$$$
>  <compound>
C[N+](C)(C)CC(=O)[O-]

>  <cell count>
13200

$$$$
>  <compound>
Cc1c(N)nc(C(CC(N)=O)NCC(N)C(N)=O)nc1C(=O)NC(C(=O)NC(C)C(O)C(C)C(=O)NC(C(=O)NCCc1nc(-c2nc(C(=O)NCCC[S+](C)C)cs2)cs1)C(C)O)C(OC1OC(CO)C(O)C(O)[C@H]1OC1OC(CO)C(O)C(OC(N)=O)C1O)c1cnc[nH]1 (some centres undefined)

>  <cell count>
2960

$$$$
>  <compound>
CC(C)(O)C(Cl)(Cl)Cl

>  <cell count>
8030

$$$$
>  <compound>
CN[C@@H]1[C@@H](O)[C@@H](O[C@@H]2[C@@H](O)[C@H](O[C@H]3O[C@H]([C@@H](C)NC)CC[C@H]3N)[C@@H](N)C[C@H]2N)OC[C@]1(C)O (tested in a mixture with another compound)

>  <cell count>
7960

$$$$
>  <compound>
C1CCN(C2CCNCC2)CC1

>  <cell count>
9000

$$$$
>  <compound>
CCCCCCCCCCNCCC (tested in a mixture with another compound)

>  <cell count>
11900

$$$$
>  <compound>
C[CH2][Hg][S]c1ccccc1C(=O)O

>  <cell count>
389

$$$$
>  <compound>
CO[C@H]1C=C2CCN(C)[C@H]2C2c3cc4c(cc3C(=O)O[C@@H]21)OCO4 (some centres undefined)

>  <cell count>
9770

$$$$
>  <compound>
CC[C@H]1CN2CCC1C[C@H]2[C@H](O)c1ccnc2ccc(OC)cc12 (some centres undefined)

>  <cell count>
9390

$$$$
>  <compound>
c1ccc2c(c1)Sc1ccccc1N2CC1CN2CCC1CC2 (centres undefined)

>  <cell count>
7490

$$$$
>  <compound>
O=C1OCCN1/N=C/c1ccc([N+](=O)[O-])o1

>  <cell count>
10900

$$$$
>  <compound>
CNCCCCCCN(C)N(O)N=O

>  <cell count>
6050

$$$$
>  <compound>
C=C1[C@@H](O)[C@]23C[C@@H]1[C@@H](O)C[C@H]2[C@@]12C4[C@@H]3C[C@@H]1[C@@](C)(CC[C@@H]2O)CN4CC

>  <cell count>
9970

$$$$
>  <compound>
CCCCCC(=O)N[C@H]1CCOC1=O

>  <cell count>
6120

$$$$
>  <compound>
COC1=C[C@@H]2C3Cc4ccc(OC)c(O)c4[C@]2(CCN3C)CC1=O

>  <cell count>
9970

$$$$
>  <compound>
Oc1ccc2c3c1O[C@H]1c4[nH]c5ccccc5c4C[C@@]4(O)[C@@H](C2)N(CC2CC2)CC[C@]314

>  <cell count>
9320

$$$$
>  <compound>
Cc1sc2c(c1C)C(c1ccc(Cl)cc1)=NC(CC(N)=O)c1nnc(C)n1-2 (centres undefined)

>  <cell count>
5540

$$$$
